# sfGFP reporter fluorescence values compiled below
B1: library; a variant is named by its letters at X, in order (parent)
chain: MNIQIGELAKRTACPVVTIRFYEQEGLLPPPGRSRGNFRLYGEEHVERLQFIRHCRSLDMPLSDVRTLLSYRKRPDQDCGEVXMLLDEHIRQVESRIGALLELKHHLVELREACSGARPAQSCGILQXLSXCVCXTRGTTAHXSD

Variants of: B1
test-name: sfGFP reporter fluorescence (15 h) (µM FITC); higher = stronger transcriptional activation
setup-conditions: library round: Round 2; ligand: 1 µM Pb

| mutant-code | sfGFP reporter fluorescence |
| --- | --- |
| NGCAP S130A | 0.0819 |
| NGDAT L85I | 0.0595 |
| NTDAP L107C | 1.7 |
| NGDRP P61N D64A | 0.221 |
| NGCDP D64K E112H | 0.402 |
| TGDDT R111I | 0.0556 |
| NTDAP M60L P61N D64K | 2.33 |
| NGCAL | 0.0668 |
| NIEDP L107C | 2.69 |
| TGDDA E25V | 0.072 |
| TGAPL | 0.109 |
| NIDAK L107C G124A | 2.25 |
| NGADY L107C | 2.4 |
| NGDDR V108L T139A | 0.068 |
| NGYPP V108I | 0.149 |
| NEDAT | 0.0597 |
| NGAAF E112D | 0.0886 |
| TGDDP L107I E112A | 0.131 |
| NGSPL | 0.141 |
| NMDAP L101V K104V | 0.55 |
| TGDDY E112I | 0.0522 |
| NGDAM Q121A | 0.106 |
| TGCDT L129I | 0.0464 |
| NHDDL E109L I125L | 0.044 |
| NIADP L107C | 3.57 |
| NIDDP H105E L107C C134E | 2.05 |
| NIDSP M60L | 0.739 |
